Test system: HL-60
Experiment: cell viability (% survival relative to DMSO control); higher = less cytotoxic
Details: 10 µM; 72 h; co-treatment: AZD3965 100 nM
Reported cell viability values are given for each entry in this list.
measured.endpoint: cell viability (%)

molecule=N=C(N)c1ccc(N=NNc2ccc(C(=N)N)cc2)cc1 system_name=HL-60 measured_endpoint="cell viability" measurement=101
molecule=CC(C)(CCCCCCCCCCC(C)(C)CC(=O)O)CC(=O)O system_name=HL-60 measured_endpoint="cell viability" measurement=99.5
molecule=CC(C)(CS(=O)(=O)[O-])NC(=O)CC[N+](C)(C)CCO system_name=HL-60 measured_endpoint="cell viability" measurement=94.1
molecule=O=c1oc2c(cc1O)oc(=O)c1cc(O)c(O)c(O)c12 system_name=HL-60 measured_endpoint="cell viability" measurement=99.6
molecule=CN(C)C(=N)NC(=N)N system_name=HL-60 measured_endpoint="cell viability" measurement=100
molecule=O=C(c1c2ccccc2cc2ccccc12)N1CCC(N2CCC[C@@H](C(=O)N3CCOCC3)C2)CC1 system_name=HL-60 measured_endpoint="cell viability" measurement=83.4
molecule=O=C(Oc1ccc([N+](=O)[O-])cc1)N1CCC(C(O)(c2ccc3c(c2)OCO3)c2ccc3c(c2)OCO3)CC1 system_name=HL-60 measured_endpoint="cell viability" measurement=105
molecule=CCCC(CCC)C(=O)O system_name=HL-60 measured_endpoint="cell viability" measurement=106
molecule=OC[C@H]1N[C@@H](c2c[nH]c3c(O)ncnc23)[C@H](O)[C@@H]1O system_name=HL-60 measured_endpoint="cell viability" measurement=94
molecule="O=[As]O[As]=O (stereo not given) [Arsenic trioxide]" system_name=HL-60 measured_endpoint="cell viability" measurement=82.7

###

Reported cell viability values are given for each entry in this list.
System: myeloid leukemia patient primary cells Pat.11
Test: cell viability (% survival relative to DMSO control); higher = less cytotoxic
Details: 10000 nM; 72 h
measured.endpoint: cell viability (%)

compound="Nc1nc(O)c2c(CCc3ccc(C(=O)N[C@@H](CCC(=O)O)C(=O)O)cc3)c[nH]c2n1 [Pemetrexed]" system_name="myeloid leukemia patient primary cells Pat.11" u=% measurement=93.9
compound="O=C(/C=C/c1cccnc1)NCCCCC1CCN(C(=O)c2ccccc2)CC1 [Daporinad]" system_name="myeloid leukemia patient primary cells Pat.11" u=% measurement=0.862
compound="O=C(Cc1cccc(OC(F)(F)F)c1)Nc1ccc(CCCCc2nnc(NC(=O)Cc3ccccn3)s2)nn1 [CB-839]" system_name="myeloid leukemia patient primary cells Pat.11" u=% measurement=90.7
compound=c1ccc2c(c1)SCc1c-2[nH]c2ccccc12 system_name="myeloid leukemia patient primary cells Pat.11" u=% measurement=0.682
compound="O=C(Oc1cccc(F)c1OC(=O)c1cccc(O)c1)c1cccc(O)c1 [WZB117]" system_name="myeloid leukemia patient primary cells Pat.11" u=% measurement=75.4
compound="Oc1ncc(F)c(O)n1 [5-fluorouracil]" system_name="myeloid leukemia patient primary cells Pat.11" u=% measurement=95.7

###

Test system: myeloid leukemia patient primary cells Pat.11
Assay: cell viability (% survival relative to DMSO control); higher = less cytotoxic
Conditions: 1 nM; 72 h
Reported cell viability values are given for each entry in this list.
measured.endpoint: cell viability

chemical_structure=O=C(CCl)N(CCCNC(=O)C(F)(F)F)c1ccc([N+](=O)[O-])cc1 measured_endpoint="cell viability" measurement=95.5%
chemical_structure=O=c1[nH]c(=O)n([C@H]2C[C@H](O)[C@@H](CO)O2)cc1I measured_endpoint="cell viability" measurement="> 100%"
chemical_structure=CN(C)CCNC(=O)c1cccn2c(=O)c3cc4ccccc4cc3nc12 measured_endpoint="cell viability" measurement="> 100%"
chemical_structure=c1ccc2c(c1)SCc1c-2[nH]c2ccccc12 measured_endpoint="cell viability" measurement="> 100%"
chemical_structure=Clc1cc(Cl)c(OCC#CI)cc1Cl measured_endpoint="cell viability" measurement=94.1%
chemical_structure=Fc1ccc(CNc2ncnc3ccc(F)cc23)cc1 measured_endpoint="cell viability" measurement="> 100%"
chemical_structure=CCCCCCCCCCCCC/C=C/[C@@H](O)[C@H](CO)N(C)C measured_endpoint="cell viability" measurement=94.6%
chemical_structure=Nc1nc(O)c2c(CCc3ccc(C(=O)N[C@@H](CCC(=O)O)C(=O)O)cc3)c[nH]c2n1 measured_endpoint="cell viability" measurement="> 100%"
chemical_structure=O=C(Cc1cccc(OC(F)(F)F)c1)Nc1ccc(CCCCc2nnc(NC(=O)Cc3ccccn3)s2)nn1 measured_endpoint="cell viability" measurement=94.1%
chemical_structure=Oc1ncc(F)c(O)n1 measured_endpoint="cell viability" measurement=99.9%

###

Reported area under dose-response curve values are given for each entry in this list.
Tested on: myeloid leukemia patient primary cells Pat.9
Assay: area under dose-response curve (viability, 1 nM-10 uM) (fraction (0-1)); higher = more sensitive
Conditions: 72 h
Counter-ions that a name gives are not always drawn.
measured.endpoint: area under dose-response curve

compound=CCn1c(=O)/c(=C2\Sc3ccccc3N2C)s/c1=C\c1cccc[n+]1CC.[Cl-] measured_endpoint="area under dose-response curve" operator_symbol== measurement=0.0402
compound="CC(C)(Cc1ccccc1)NCC(O)c1ccc(O)c(NS(C)(=O)=O)c1 (centres undefined) [Zinterol hydrochloride]" measured_endpoint="area under dose-response curve" operator_symbol=< measurement=0.0301
compound=CN(C)CCNC(=O)c1cccn2c(=O)c3cc4ccccc4cc3nc12 measured_endpoint="area under dose-response curve" operator_symbol== measurement=0.396
compound=O=C(Oc1cccc(F)c1OC(=O)c1cccc(O)c1)c1cccc(O)c1 measured_endpoint="area under dose-response curve" operator_symbol== measurement=0.223

###

Reported cell viability values are given for each entry in this list.
Tested on: ML-2
Assay: cell viability (% survival relative to DMSO control, bortezomib = 0%); higher = less cytotoxic
Conditions: 1000 nM; 72 h
measured.endpoint: cell viability

compound=OCC(CO)N[C@H]1C[C@](O)(CO)[C@@H](O)[C@H](O)[C@H]1O measurement=95.2%
compound=C=C1C(=O)O[C@H](CCCCCCCC)[C@H]1C(=O)O measurement=110%
compound="NC(CCC(=O)NC(CSCc1ccc(Br)cc1)C(=O)NCC(=O)OC1CCCC1)C(=O)OC1CCCC1 (stereo not drawn)" measurement=105%
compound="CC1Cc2ccccc2N1NC(=O)c1ccc(Cl)c(S(N)(=O)=O)c1 (stereo not drawn) [Indapamide]" measurement=93.8%
compound=O=C(Oc1cccc(F)c1OC(=O)c1cccc(O)c1)c1cccc(O)c1 measurement=98.8%
compound=OCCN1C[C@H](O)[C@@H](O)[C@H](O)[C@H]1CO measurement=96%
compound=CCCCCCCCCCCCC/C=C/[C@@H](O)[C@H](CO)N(C)C measurement=107%
compound=C#CCN[C@@H]1CCc2ccccc21 measurement=87.2%

###

Test system: myeloid leukemia patient primary cells Pat.6
Assay: cell viability (% survival relative to DMSO control); higher = less cytotoxic
Details: 1000 nM; 72 h
Define the label as MET when cell viability is strictly less than 80% and as NOT MET in all remaining cases.

molecule=Cc1nnc(-c2ccc(N3CCC(Oc4ccccc4C(F)(F)F)CC3)nn2)s1 label_value="NOT MET"
molecule=CC(C)c1onc(-c2c(Cl)cccc2Cl)c1COc1ccc(/C=C/c2cccc(C(=O)O)c2)c(Cl)c1 label_value="NOT MET"
molecule=O=C(CCl)N(CCCNC(=O)C(F)(F)F)c1ccc([N+](=O)[O-])cc1 label_value=MET
molecule=Clc1cc(Cl)c(OCC#CI)cc1Cl label_value=MET
molecule=O=C(Cc1cccc(OC(F)(F)F)c1)Nc1ccc(CCCCc2nnc(NC(=O)Cc3ccccn3)s2)nn1 label_value="NOT MET"
molecule="CCC(CC#N)OC(=O)N[C@@H](C)c1cccc(NC(=O)Nc2ccc(-c3cnco3)c(OC)c2)c1 (stereo in doubt)" label_value="NOT MET"
molecule=CCCCCCCCCCCCC/C=C/[C@@H](O)[C@H](CO)N(C)C label_value="NOT MET"
molecule=CCn1c(=O)/c(=C2\Sc3ccccc3N2C)s/c1=C\c1cccc[n+]1CC.[Cl-] label_value="NOT MET"
molecule=Nc1nc(O)c2c(CCc3ccc(C(=O)N[C@@H](CCC(=O)O)C(=O)O)cc3)c[nH]c2n1 label_value="NOT MET"
molecule=O=C(Oc1cccc(F)c1OC(=O)c1cccc(O)c1)c1cccc(O)c1 label_value="NOT MET"
molecule=Oc1ncc(F)c(O)n1 label_value="NOT MET"

###

System: ML-2
Assay: cell viability (% survival relative to DMSO control, bortezomib = 0%); higher = less cytotoxic
Details: 1 nM; 72 h
Reported cell viability values are given for each entry in this list.
measured.endpoint: cell viability

compound=C=C1C(=O)O[C@H](CCCCCCCC)[C@H]1C(=O)O measurement=115%
compound=O=C(C(=O)c1ccc(Br)cc1)c1ccc(Br)cc1 measurement=91.7%
compound=Cl.NC1=CCCN1Cc1nc(O)nc(O)c1Cl measurement=108%
compound=Cc1cc(O)c2c(c1)C(=O)c1cc(O)cc(O)c1C2=O measurement=97.8%
compound=O=C(CCl)N(CCCNC(=O)C(F)(F)F)c1ccc([N+](=O)[O-])cc1 measurement=97%
compound="Cn1c2cc(S(C)=O)sc2c2cnn(Cc3cccc(N)c3)c(=O)c21 (stereo not given)" measurement=116%
compound=OC[C@H]1N[C@@H](c2c[nH]c3c(O)ncnc23)[C@H](O)[C@@H]1O measurement=92.7%
compound=CN(C)C(=N)NC(=N)N measurement=102%
compound=OCCN(CCO)c1nc(N2CCCCC2)c2nc(N(CCO)CCO)nc(N3CCCCC3)c2n1 measurement=93.4%
compound=COc1cc(/C=C/c2ccc(OC)cc2OC)cc(OC)c1 measurement=80.1%
compound="CCC(CC#N)OC(=O)N[C@@H](C)c1cccc(NC(=O)Nc2ccc(-c3cnco3)c(OC)c2)c1 (stereo in doubt)" measurement=99.6%
compound=CC(C)(F)C[C@H](N[C@@H](c1ccc(-c2ccc(S(C)(=O)=O)cc2)cc1)C(F)(F)F)C(=O)NC1(C#N)CC1 measurement=107%
compound="Cc1[nH]n(-c2ccccc2)c(=O)c1C1(C(F)(F)F)C(=O)N(c2ccccc2)C2=C1C(=O)CC(C)(C)C2 (stereo not given)" measurement=98.6%
compound=Fc1ccc(CNc2ncnc3ccc(F)cc23)cc1 measurement=108%
compound="NCc1ccc(S(N)(=O)=O)cc1 [4-Homosulfanilamide]" measurement=90.9%
compound=OCCN1C[C@H](O)[C@@H](O)[C@H](O)[C@H]1CO measurement=95.4%
compound=Cc1nnc(-c2ccc(N3CCC(Oc4ccccc4C(F)(F)F)CC3)nn2)s1 measurement=96%
compound=CC(=O)N[C@@H](CS)C(=O)O measurement=104%
compound=Cl.OC[C@H]1NC[C@H](O)[C@@H](O)[C@H]1O measurement=98.5%
compound=CC(C)c1ccc2c(c1)c(SC(C)(C)C)c(CC(C)(C)C(=O)O)n2Cc1ccc(Cl)cc1 measurement=132%
